Reference for the values: patent US8580815B2

Each entry below carries its recorded pIC50.
molecular target: Abl kinase (h) (Homo sapiens (Human), UniProt P00519); test: Cerep kinase profiling, HTRF assay, Abl kinase; format: biochemical; settings: compounds tested by Cerep; read-out: IC50 on kinase Abl WT (category)
Sequence (P00519 whole entry): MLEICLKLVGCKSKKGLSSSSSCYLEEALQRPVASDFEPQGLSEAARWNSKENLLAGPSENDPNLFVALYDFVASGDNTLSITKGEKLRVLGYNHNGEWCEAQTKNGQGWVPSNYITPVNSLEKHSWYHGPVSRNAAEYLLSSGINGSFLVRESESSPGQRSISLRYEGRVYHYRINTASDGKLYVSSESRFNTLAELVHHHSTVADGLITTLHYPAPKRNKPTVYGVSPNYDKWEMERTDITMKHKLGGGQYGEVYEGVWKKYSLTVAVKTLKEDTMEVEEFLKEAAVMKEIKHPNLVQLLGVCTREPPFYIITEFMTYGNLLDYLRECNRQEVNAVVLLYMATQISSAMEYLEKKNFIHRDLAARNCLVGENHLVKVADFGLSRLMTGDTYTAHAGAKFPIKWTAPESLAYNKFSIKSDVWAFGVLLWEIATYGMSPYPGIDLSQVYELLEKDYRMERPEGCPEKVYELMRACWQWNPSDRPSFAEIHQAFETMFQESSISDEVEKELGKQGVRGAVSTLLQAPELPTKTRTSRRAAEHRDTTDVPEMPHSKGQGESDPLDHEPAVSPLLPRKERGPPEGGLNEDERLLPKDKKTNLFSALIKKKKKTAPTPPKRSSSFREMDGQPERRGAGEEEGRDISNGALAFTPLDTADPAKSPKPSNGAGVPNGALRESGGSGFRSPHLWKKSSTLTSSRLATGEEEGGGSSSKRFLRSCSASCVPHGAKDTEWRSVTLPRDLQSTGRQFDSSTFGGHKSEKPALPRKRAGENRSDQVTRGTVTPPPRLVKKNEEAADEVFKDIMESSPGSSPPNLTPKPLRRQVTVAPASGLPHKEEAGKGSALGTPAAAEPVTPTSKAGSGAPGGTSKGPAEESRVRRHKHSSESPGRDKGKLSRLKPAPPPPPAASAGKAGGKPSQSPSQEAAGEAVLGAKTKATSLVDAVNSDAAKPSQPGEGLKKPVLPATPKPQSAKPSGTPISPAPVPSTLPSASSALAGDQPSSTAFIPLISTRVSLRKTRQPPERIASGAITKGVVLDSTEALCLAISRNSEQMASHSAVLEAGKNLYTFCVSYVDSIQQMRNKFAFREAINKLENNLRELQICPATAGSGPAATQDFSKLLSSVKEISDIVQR
pIC50: −log10 of the molar value.

compound="O=C(Nc1cnc2[nH]c(Cn3ccnc3)cc2c1)c1ccccc1Br [ND0031]" measurement_kind=pIC50 experimental_value="5.00 to 7.00"

Now examine the next entry.
Form field pIC50, entry O=C(Nc1cnc2[nH]c(C(=O)N3CCOCC3)cc2c1)c1cc([N+](=O)[O-])ccc1F [ND0010] : < 5.00
